# subject.of.test: CARM1 (Homo sapiens, UniProt Q86X55)
# Sequence (Q86X55 whole entry, species assumed): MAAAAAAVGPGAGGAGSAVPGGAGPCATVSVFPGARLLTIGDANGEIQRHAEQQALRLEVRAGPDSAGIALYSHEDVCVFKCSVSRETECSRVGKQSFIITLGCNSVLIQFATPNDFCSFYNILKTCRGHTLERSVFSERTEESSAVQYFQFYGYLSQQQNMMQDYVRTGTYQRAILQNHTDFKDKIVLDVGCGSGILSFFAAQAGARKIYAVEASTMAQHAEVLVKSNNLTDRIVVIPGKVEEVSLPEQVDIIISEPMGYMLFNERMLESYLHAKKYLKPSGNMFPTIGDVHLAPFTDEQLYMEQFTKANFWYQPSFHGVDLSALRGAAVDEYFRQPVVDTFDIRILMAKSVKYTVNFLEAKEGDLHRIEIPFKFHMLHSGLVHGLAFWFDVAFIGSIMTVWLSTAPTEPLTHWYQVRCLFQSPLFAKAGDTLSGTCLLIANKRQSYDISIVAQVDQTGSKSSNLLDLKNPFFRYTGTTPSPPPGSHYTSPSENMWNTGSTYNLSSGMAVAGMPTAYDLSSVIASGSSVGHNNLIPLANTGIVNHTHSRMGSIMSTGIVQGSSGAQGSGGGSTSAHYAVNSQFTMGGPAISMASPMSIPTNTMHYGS
measured.quantity: IC50

**Q:** State, in one line, measured IC50 of CCN(c1cc(-c2ccc(CN3CCOCC3)cc2)cc(C(=O)NCc2c(C)cc(C)[nH]c2=O)c1C)C1CCOCC1
**A:** > 50 µM

* * *

# subject.of.test: PRMT1 (Homo sapiens, UniProt Q99873)
# Sequence (Q99873 whole entry, species assumed): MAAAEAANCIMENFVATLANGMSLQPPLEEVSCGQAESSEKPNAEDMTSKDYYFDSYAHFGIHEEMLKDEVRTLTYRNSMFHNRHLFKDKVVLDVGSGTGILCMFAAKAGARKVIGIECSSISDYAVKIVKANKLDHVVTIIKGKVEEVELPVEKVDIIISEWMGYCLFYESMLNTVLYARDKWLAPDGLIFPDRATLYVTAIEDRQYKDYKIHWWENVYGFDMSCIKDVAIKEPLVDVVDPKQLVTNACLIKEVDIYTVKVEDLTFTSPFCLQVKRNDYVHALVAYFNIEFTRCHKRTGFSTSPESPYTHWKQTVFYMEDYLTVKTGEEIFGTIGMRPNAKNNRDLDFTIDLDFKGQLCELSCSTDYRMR
pIC50: −log10 of the molar value.
measured.quantity: pIC50

**Q:** Would you please give the reported pIC50 of CCN(c1cc(-c2ccc(CN3CCOCC3)cc2)cc(C(=O)NCc2c(C)cc(C)[nH]c2=O)c1C)C1CCOCC1 [Compound A] with PRMT1 (Homo sapiens, UniProt Q99873)?
**A:** < 4.30

* * *

# subject.of.test: PRMT5/MEP50 (Homo sapiens, UniProt O14744)
# Sequence (O14744 whole entry, species assumed): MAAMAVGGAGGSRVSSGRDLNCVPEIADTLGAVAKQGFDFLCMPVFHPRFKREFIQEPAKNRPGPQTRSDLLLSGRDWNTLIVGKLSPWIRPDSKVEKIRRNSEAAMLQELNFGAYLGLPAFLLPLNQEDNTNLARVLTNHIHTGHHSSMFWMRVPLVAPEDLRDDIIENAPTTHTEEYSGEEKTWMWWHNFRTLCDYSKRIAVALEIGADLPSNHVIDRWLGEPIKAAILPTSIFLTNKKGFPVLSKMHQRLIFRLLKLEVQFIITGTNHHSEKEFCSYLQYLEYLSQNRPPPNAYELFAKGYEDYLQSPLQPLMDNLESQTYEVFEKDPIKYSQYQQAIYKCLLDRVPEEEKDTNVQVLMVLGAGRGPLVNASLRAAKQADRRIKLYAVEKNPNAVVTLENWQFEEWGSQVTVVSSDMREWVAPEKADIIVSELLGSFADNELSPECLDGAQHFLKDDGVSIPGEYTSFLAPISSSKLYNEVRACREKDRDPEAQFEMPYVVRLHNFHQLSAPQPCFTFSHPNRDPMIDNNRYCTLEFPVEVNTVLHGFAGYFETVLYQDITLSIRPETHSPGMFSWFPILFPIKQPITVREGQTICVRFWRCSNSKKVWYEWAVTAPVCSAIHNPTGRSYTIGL
# Sequence (Q9BQA1 whole entry partner, species assumed): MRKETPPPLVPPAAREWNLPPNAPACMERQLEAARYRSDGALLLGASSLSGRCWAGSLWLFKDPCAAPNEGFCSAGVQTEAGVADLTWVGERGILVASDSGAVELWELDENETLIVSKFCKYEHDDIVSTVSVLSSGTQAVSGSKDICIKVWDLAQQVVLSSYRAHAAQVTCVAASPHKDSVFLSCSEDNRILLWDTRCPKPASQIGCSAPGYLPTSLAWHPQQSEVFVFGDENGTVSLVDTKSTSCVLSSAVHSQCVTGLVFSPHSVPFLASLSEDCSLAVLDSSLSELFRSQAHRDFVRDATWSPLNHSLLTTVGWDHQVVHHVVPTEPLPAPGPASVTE
# test.description: Histone methyltransferase inhibition, PRMT5/MEP50
# Assay type: biochemical
# condition.parameters: one experiment
measured.quantity: IC50

**Q:** State, in one line, measured IC50 of CCN(c1cc(-c2ccc(CN3CCOCC3)cc2)cc(C(=O)NCc2c(C)cc(C)[nH]c2=O)c1C)C1CCOCC1 [Compound A]
**A:** > 50 µM

* * *

# subject.of.test: UniProt Q8TEK3
# Sequence (Q8TEK3 whole entry, species assumed): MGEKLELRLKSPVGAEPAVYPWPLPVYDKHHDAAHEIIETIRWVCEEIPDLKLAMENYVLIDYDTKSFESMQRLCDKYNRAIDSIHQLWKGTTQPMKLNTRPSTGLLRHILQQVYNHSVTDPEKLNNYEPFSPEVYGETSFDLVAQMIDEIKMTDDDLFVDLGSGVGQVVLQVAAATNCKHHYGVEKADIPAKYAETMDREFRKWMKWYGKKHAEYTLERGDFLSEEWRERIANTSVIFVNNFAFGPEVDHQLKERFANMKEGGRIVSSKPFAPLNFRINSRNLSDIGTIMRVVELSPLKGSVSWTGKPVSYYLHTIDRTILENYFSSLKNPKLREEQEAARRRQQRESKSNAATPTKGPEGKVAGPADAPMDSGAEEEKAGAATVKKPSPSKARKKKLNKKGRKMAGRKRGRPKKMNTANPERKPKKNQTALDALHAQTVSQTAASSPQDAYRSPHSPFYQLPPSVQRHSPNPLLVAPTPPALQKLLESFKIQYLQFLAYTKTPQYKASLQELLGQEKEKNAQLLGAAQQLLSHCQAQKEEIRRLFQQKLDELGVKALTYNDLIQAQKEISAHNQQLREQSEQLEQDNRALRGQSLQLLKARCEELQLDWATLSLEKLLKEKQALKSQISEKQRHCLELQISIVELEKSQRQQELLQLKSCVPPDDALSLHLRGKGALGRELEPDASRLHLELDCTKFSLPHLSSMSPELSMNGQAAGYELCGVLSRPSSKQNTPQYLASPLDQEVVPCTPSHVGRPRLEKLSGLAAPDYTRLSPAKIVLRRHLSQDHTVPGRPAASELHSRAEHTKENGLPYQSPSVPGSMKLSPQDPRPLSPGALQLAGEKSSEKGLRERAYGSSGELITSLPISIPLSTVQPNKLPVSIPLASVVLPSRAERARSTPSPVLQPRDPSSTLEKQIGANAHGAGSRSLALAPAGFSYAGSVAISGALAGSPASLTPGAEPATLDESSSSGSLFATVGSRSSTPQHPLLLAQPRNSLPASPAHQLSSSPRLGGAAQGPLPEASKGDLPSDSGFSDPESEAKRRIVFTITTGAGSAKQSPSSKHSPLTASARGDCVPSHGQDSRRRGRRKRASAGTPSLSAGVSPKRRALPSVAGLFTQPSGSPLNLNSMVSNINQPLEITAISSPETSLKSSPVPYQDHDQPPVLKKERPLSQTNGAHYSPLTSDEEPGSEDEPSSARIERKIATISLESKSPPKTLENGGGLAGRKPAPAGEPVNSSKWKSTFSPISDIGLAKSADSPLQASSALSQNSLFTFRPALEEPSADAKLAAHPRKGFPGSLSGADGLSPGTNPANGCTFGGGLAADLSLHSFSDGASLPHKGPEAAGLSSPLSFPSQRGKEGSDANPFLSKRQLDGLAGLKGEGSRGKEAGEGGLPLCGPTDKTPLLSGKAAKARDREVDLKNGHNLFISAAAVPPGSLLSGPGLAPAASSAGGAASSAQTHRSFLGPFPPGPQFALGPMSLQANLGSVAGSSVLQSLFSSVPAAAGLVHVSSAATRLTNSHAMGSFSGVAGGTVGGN
# test.description: Histone methyltransferase inhibition, DOT1L
# Type: biochemical
# condition.parameters: one experiment
measured.quantity: IC50

**Q:** State, in one line, measured IC50 of CCN(c1cc(-c2ccc(CN3CCOCC3)cc2)cc(C(=O)NCc2c(C)cc(C)[nH]c2=O)c1C)C1CCOCC1
**A:** > 50 µM

From: patent US12162865B2
